system: canine FcRn/B2M protein complex (canine FcRn ECD with C-terminal poly-His tag and canine Beta-2-Microglobulin) (canine)
experimental_details: SPR Biacore 8K, pH 6.0, 25 C; Fc captured by SASA tag on BSA chip, FcRn/B2M 400 nM as analyte
recorded_endpoint: koff (s⁻¹)
Give the value, in units of s⁻¹, as a plain number.

Some solved entries appear below for comparison.
| binder | value_measured |
| --- | --- |
| variant canine IgG-B Fc polypeptide Y0H (Leu24Tyr, Asn208His) (protein, not shown: small tags and cut ends) CPAPEMLGGPSVFIFPPKPKDTLYIARTPEVTCVVVDLDPEDPEVQISWFVDGKQMQTAKTQPREEQFNGTYRVVSVLPIGHQDWLKGKQFTCKVNNKALPSPIERTISKARGQAHQPSVYVLPPSREELSKNTVSLTCLIKDFFPPDIDVEWQSNGQQEPESKYRTTPPQLDEDGSYFLYSKLSVDKSRWQRGDTFICAVMHEALHHHYTQESLSHSPGK | 0.00271 |
| variant canine IgG-B Fc polypeptide 0YR (Gln83Tyr, Asn208Arg) (protein, not shown: small tags and cut ends) CPAPEMLGGPSVFIFPPKPKDTLLIARTPEVTCVVVDLDPEDPEVQISWFVDGKQMQTAKTQPREEQFNGTYRVVSVLPIGHYDWLKGKQFTCKVNNKALPSPIERTISKARGQAHQPSVYVLPPSREELSKNTVSLTCLIKDFFPPDIDVEWQSNGQQEPESKYRTTPPQLDEDGSYFLYSKLSVDKSRWQRGDTFICAVMHEALHRHYTQESLSHSPGK | 0.00655 |
| variant canine IgG-B Fc polypeptide YYW (Leu24Tyr, Gln83Tyr, Asn208Trp) (protein, not shown: small tags and cut ends) CPAPEMLGGPSVFIFPPKPKDTLYIARTPEVTCVVVDLDPEDPEVQISWFVDGKQMQTAKTQPREEQFNGTYRVVSVLPIGHYDWLKGKQFTCKVNNKALPSPIERTISKARGQAHQPSVYVLPPSREELSKNTVSLTCLIKDFFPPDIDVEWQSNGQQEPESKYRTTPPQLDEDGSYFLYSKLSVDKSRWQRGDTFICAVMHEALHWHYTQESLSHSPGK | 0.000496 |
| variant canine IgG-B Fc polypeptide Y0W (Leu24Tyr, Asn208Trp) (protein, not shown: small tags and cut ends) CPAPEMLGGPSVFIFPPKPKDTLYIARTPEVTCVVVDLDPEDPEVQISWFVDGKQMQTAKTQPREEQFNGTYRVVSVLPIGHQDWLKGKQFTCKVNNKALPSPIERTISKARGQAHQPSVYVLPPSREELSKNTVSLTCLIKDFFPPDIDVEWQSNGQQEPESKYRTTPPQLDEDGSYFLYSKLSVDKSRWQRGDTFICAVMHEALHWHYTQESLSHSPGK | 0.000929 |

Field: next binder
response.value for variant canine IgG-B Fc polypeptide 0YW (Gln83Tyr, Asn208Trp) (protein, not shown: small tags and cut ends) CPAPEMLGGPSVFIFPPKPKDTLLIARTPEVTCVVVDLDPEDPEVQISWFVDGKQMQTAKTQPREEQFNGTYRVVSVLPIGHYDWLKGKQFTCKVNNKALPSPIERTISKARGQAHQPSVYVLPPSREELSKNTVSLTCLIKDFFPPDIDVEWQSNGQQEPESKYRTTPPQLDEDGSYFLYSKLSVDKSRWQRGDTFICAVMHEALHWHYTQESLSHSPGK (field: koff) = 0.00213

The reported measurements were obtained from patent US20210388053A1.
